// reported pIC50 per item
Target: GIRK1/4 (Homo sapiens (Human), UniProt P48544+P48549)
Sequence (P48549 whole entry): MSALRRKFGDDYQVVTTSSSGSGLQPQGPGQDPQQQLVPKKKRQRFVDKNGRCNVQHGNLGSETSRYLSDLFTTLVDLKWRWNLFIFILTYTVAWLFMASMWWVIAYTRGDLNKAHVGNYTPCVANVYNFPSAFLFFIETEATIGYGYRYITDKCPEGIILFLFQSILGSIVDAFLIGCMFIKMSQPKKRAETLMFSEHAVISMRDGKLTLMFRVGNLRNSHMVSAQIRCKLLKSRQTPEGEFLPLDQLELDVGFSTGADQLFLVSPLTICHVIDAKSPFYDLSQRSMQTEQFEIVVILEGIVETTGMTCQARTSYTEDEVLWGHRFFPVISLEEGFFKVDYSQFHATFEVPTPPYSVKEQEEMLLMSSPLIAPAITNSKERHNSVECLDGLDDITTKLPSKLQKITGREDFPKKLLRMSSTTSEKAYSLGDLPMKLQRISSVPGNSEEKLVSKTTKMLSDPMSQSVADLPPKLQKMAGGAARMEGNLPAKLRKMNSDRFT
Sequence (P48544 whole entry): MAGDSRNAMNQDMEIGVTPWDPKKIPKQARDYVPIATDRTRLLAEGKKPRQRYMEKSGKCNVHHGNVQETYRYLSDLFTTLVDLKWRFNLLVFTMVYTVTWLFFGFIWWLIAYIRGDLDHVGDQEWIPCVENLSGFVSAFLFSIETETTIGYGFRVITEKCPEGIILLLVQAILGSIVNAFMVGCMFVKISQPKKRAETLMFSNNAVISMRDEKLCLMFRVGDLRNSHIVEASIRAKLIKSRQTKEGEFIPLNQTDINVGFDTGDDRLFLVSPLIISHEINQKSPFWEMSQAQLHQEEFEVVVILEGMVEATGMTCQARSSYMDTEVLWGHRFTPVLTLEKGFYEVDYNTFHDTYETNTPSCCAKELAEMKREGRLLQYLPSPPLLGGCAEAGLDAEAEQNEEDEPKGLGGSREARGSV
Assay: GIRK1/4 inhibition, Quattro (IonWorks) population patch clamp, inward potassium current in GIRK 1/4 HEK293 stable cells (test assay No. 1)
Details: percentage of current inhibition normalized to DMSO-only control
pIC50 field: float, defined as -log10 of concentration (mol/L).

Please review the entries below; each comes with its answer.
{"Molecule": "Cc1cc(=O)c2c(NS(=O)(=O)c3cn[nH]c3)cncc2n1-c1c(Cl)cc(C#N)cc1Cl", "pIC50": 5.52}
{"Molecule": "Cc1cc(=O)c2c(OCC(O)CO)ncc(Cl)c2n1-c1c(Cl)cc(C#CC(C)(C)N)cc1Cl (centres unmarked)", "pIC50": 6.49}
{"Molecule": "O=c1cc(CO)n(-c2c(Cl)cccc2Cl)c2c(Cl)cnc(O)c12", "pIC50": 6.01}
{"Molecule": "CCc1cc2c(c(OCC(O)CO)n1)c(=O)cc(C)n2-c1c(Cl)cccc1Cl (centres unmarked)", "pIC50": 7.47}
{"Molecule": "Cc1cc(=O)c2c(NCCO)cncc2n1-c1c(Cl)cc(C#N)cc1Cl", "pIC50": 6.82}
{"Molecule": "O=c1cc(CO)n(-c2c(Cl)cc(F)cc2Cl)c2c(Cl)cnc(OCC(O)CO)c12 (centres unmarked)", "pIC50": 6.58}

response.value for O=c1cc(CO)n(-c2c(Cl)cccc2Cl)c2c(Cl)cnc(NCCOCCOCCOCCO)c12 (field: pIC50) = 7.15

Please fill in: pIC50 reported for O=c1cc(CO)n(-c2c(Cl)cccc2Cl)c2c(Cl)cnc(OC[C@@H](O)CO)c12 = 6.98

pIC50 recorded for this molecule, Cc1cc(=O)c2c(C(=O)CO)ncc(Cl)c2n1-c1c(Cl)cccc1Cl , is 7.43

Lab note: measured pIC50 of Cc1cc(=O)c2c(-c3cnn(C)c3)cncc2n1-c1c(Cl)cc(C#N)cc1Cl was 6.48

The molecule identified as Cc1cc(=O)c2c(OCC(O)C(C)(C)O)ncc(Cl)c2n1-c1c(Cl)cccc1Cl (centres unmarked) [Example 40] registered its pIC50 at 7.89

---

Target: GIRK1/4 (Homo sapiens (Human), UniProt P48544+P48549)
Assay: GIRK1/4 inhibition, Quattro (IonWorks) population patch clamp, inward potassium current in GIRK 1/4 HEK293 stable cells (test assay No. 1)
Format: cell-based
Details: percentage of current inhibition normalized to DMSO-only control
Measured pIC50 accompanies every entry in the list below.
On this scale, pIC50 is minus log10 of a concentration expressed in M (mol/L).

{"Compound": "O=c1cc(CO)n(-c2c(Cl)cccc2Cl)c2c(Cl)cnc(C(O)CO)c12 (stereo not shown) [Example 82]", "pIC50": 6.83}

// Cc1cc(=O)c2c(NCCNS(C)(=O)=O)cncc2n1-c1c(Cl)cc(C#N)cc1Cl : pIC50 value = 6.83

Documented pIC50 of COCCOCCOc1ncc(Cl)c2c1c(=O)cc(CO)n2-c1c(Cl)cccc1Cl : 7.14

Reported pIC50 of O=c1cc(CO)n(-c2c(Cl)cccc2Cl)c2c(Cl)cnc(CCCO)c12 : 7.16
